Values from the supplement of paper PMC11208160

- experimental details: recombinant UMI read abundance after kanamycin selection (control-corrected) (log10(CPM+1)); higher = more efficient recombination; extreme values may be limits of the assay; sequences stand for … in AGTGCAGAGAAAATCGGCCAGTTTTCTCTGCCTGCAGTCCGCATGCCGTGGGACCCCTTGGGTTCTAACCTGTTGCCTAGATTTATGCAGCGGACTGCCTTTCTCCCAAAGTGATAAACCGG…AGGTTGGTTTCACT; site = the 11-nt donor;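 note: IS621 bridge recombinase in Escherichia coli cells against a fixed T5 target plasmid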
Use 0.006 as the dividing line for recombinant UMI read abundance (log10), with the line itself on the Yes side and lower values as No.

input sequence: GTCTGATCATGGACCGGTTTTCCCGGTAATCCGTATTTGGG (site GTCTGATCTCC)
label class: Yes
--
input sequence: AGGAAAACATGGACCGGTTTTCCCGGTAATCCGTATTTGCA (site AGGAACACTTG)
label class: No
--
input sequence: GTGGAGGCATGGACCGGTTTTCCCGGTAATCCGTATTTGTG (site GTGTAGGCTCA)
label class: Yes
--
input sequence: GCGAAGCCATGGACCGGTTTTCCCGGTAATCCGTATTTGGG (site GCGAAGCCTCA)
label class: Yes
--
input sequence: GGGGATGCATGGACCGGTTTTCCCGGTAATCCGTATTTGGC (site GGGGATGCTGC)
label class: No
--
input sequence: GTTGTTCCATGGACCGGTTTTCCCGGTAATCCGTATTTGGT (site GTTGTACCTAC)
label class: Yes
--
input sequence: ACGCACGCATGGACCGGTTTTCCCGGTAATCCGTATTTGGG (site AAGCACGCTCC)
label class: Yes
--
input sequence: TTGAGAACATGGACCGGTTTTCCCGGTAATCCGTATTTGAC (site TTGAGAACTGT)
label class: Yes
--
input sequence: CCCCACACATGGACCGGTTTTCCCGGTAATCCGTATTTGTC (site CCCCACACTAA)
label class: Yes
--
input sequence: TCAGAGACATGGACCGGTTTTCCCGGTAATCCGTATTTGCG (site TCAGAGACTTG)
label class: Yes
--
input sequence: CACGCGCCATGGACCGGTTTTCCCGGTAATCCGTATTTGTG (site CACGCGCCTCA)
label class: No
--
input sequence: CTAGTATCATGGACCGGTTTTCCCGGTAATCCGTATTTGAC (site CTTGTGTCTGT)
label class: No
--
input sequence: CGCCGTCCATGGACCGGTTTTCCCGGTAATCCGTATTTGCT (site CGCCGTTCTAG)
label class: Yes
--
input sequence: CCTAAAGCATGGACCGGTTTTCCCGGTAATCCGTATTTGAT (site CCTAAGGCTAT)
label class: No
